Target: T1, GABARAPL2 (ITC sample) (human, UniProt P60520 1-117)
T1 construct: GABARAPL2, human, purified protein for ITC
T1 sequence (P60520 whole entry): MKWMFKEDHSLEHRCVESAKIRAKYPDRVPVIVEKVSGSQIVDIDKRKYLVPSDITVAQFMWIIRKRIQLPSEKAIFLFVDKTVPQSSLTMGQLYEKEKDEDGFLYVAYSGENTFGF
Test: ITC; 0.4 mM PCM1 LIR peptide titrated into 0.025 mM LC3 and GABARAP proteins in 21 steps, 25 °C, 50 mM Tris-HCl pH 7.4, 100 mM NaCl, one-site binding model
Conditions: both partners purified
outcome.measure: Kd (µM)

| binder | numeric.value |
| --- | --- |
| SDEEDFVKVEDLPLKLTIY (PCM1, human, residues 1958-1976 with the core LIR FVKV; also called PCM1 LIR peptide; PCM LIR peptide; source: synthetic peptide, bought: GenScript Inc) [Human PCM1 LIR-contained peptide] | 3.2 |
